- assayedSystem: human mAChR M3 (Homo sapiens)
- Construct: host or cells: CHO-K1
- Sequence (P20309 whole entry): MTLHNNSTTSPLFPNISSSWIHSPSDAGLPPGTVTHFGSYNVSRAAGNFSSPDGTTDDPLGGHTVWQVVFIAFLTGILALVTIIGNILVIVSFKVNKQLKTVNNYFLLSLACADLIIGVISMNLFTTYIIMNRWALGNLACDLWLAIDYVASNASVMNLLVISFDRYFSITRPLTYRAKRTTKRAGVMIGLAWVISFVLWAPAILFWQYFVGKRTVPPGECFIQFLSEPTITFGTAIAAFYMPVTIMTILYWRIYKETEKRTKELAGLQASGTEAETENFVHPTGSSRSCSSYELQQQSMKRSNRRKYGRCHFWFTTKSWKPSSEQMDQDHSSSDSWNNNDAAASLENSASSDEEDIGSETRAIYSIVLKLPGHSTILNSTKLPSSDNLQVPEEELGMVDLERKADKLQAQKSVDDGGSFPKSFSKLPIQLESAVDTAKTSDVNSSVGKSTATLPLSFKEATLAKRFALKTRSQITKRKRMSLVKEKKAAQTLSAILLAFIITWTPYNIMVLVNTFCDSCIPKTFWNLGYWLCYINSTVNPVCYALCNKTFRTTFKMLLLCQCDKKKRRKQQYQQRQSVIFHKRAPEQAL
- protocolDetails: competitive radioligand binding assay with [3H]NMS on CHO cell membranes, M3
- experimentalContext: n ≥ 3, ± standard deviation, read-out: Inhibition constants (Ki) M3
measuredEndpoint: Ki
The reply should consist of the numeric value with the unit placed after it.

Looking for the measured Ki of CN1CCC=C(C(=O)O[C@@H](c2ccccc2)[C@H](O)c2ccccc2)C1 (racemic) , can you help? 3.2 µM

----------
Target chain: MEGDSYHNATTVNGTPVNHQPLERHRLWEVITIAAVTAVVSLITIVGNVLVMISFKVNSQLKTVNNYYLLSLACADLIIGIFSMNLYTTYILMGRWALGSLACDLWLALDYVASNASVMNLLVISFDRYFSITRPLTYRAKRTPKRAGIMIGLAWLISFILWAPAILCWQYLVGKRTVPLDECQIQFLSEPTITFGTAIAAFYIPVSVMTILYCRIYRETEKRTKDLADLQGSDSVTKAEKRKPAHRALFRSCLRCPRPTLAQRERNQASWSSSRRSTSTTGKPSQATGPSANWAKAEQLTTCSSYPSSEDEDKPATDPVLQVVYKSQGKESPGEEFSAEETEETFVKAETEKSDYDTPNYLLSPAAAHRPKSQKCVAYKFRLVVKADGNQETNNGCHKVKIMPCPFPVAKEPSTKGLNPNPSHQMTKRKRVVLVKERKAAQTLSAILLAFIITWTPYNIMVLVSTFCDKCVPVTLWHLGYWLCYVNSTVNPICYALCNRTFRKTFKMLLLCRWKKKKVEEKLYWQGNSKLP
measuredEndpoint: Ki

Looking for the measured Ki of CN1CCC=C(C(=O)O[C@H](c2ccccc2)[C@H](O)c2ccccc2)C1 [compound 1] , can you help? 600 nM

----------
Target sequence: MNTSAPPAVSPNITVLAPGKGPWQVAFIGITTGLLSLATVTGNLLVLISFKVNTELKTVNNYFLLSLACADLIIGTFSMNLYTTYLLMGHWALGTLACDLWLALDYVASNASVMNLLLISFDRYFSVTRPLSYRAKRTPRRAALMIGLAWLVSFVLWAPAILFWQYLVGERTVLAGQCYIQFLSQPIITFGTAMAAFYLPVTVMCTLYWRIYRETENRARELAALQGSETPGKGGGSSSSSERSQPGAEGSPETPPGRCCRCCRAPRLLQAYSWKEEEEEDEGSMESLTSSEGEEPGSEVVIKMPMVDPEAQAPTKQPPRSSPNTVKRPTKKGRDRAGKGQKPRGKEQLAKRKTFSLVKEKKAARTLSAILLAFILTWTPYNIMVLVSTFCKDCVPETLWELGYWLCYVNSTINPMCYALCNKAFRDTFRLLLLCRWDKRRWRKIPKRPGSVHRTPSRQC
measuredEndpoint: pKi
The value called pKi is obtained by taking minus log10 of the concentration in mol/L.

Looking for the measured pKi of CN1CCC=C(C(=O)O[C@H](c2ccccc2)[C@H](O)c2ccccc2)C1 , can you help? 7.00

----------
Listing: chromatographic logD of selected molecules
- protocolDetails: HPLC-logP determination
- Format: physicochemical
- experimentalContext: HPLC on apHERA stationary phase (5 µm, 10 × 6 mm), pH 7.4; read-out: HPLC-logPow pH7.4
Please reply with the number alone, leaving off any unit.

[[record]]
molecule = "CN1CCC=C(C(=O)O[C@H](c2ccccc2)[C@H](O)c2ccccc2)C1"
reportedmeasurement = 2.24

[[record]]
molecule = "CN1CCC=C(C(=O)O[C@@H](c2ccccc2)[C@H](O)c2ccccc2)C1 (racemic)"
reportedmeasurement = 2.39


Please look at the following molecule next.
Looking for the measured chromatographic logD of CN1CCC=C(C(=O)O[C@@H](c2ccccc2)[C@@H](O)c2ccccc2)C1 , can you help? 2.24

----------
Listing: Ki of selected molecules
- assayedSystem: human mAChR M4 (Homo sapiens)
- Sequence (P08173 whole entry): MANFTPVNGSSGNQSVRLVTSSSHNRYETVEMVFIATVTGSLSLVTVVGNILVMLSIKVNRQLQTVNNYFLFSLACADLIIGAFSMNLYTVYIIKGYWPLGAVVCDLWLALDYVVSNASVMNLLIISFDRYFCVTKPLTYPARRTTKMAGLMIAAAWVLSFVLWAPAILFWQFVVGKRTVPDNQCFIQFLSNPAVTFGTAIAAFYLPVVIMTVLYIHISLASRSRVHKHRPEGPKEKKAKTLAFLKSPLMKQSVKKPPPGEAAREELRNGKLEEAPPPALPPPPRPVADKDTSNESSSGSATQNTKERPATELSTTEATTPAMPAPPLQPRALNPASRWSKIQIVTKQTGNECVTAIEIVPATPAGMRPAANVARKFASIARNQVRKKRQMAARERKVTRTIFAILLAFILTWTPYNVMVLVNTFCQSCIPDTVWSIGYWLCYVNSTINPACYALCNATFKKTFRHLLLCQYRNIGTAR
Quick note: give the figure in nM, leave out the unit.

Past entries and their recorded results:
[[record]]
molecule = "CN1CCC=C(C(=O)O[C@@H](c2ccccc2)[C@@H](O)c2ccccc2)C1"
measuredendpoint = "Ki"
reportedmeasurement = 2700

[[record]]
molecule = "CN1CCC=C(C(=O)O[C@H](c2ccccc2)[C@H](O)c2ccccc2)C1"
measuredendpoint = "Ki"
reportedmeasurement = 700


Please look at the following molecule next.
# get_value(readout= Ki, system= human mAChR M4 (Homo sapiens)) for CN1CCC=C(C(=O)O[C@@H](c2ccccc2)[C@H](O)c2ccccc2)C1 (racemic) 1600
